The listing below reports MIC for compounds tested on Enterobacter cloacae ATCC 13 047.
Observed Property: MIC (µg/mL)

{"columns": ["Compound", "Data Value"],
 "data": [
  ["CC1(C)S[C@@H]2[C@H](NC(=O)C(NC(=O)Nc3cnc(Nc4ccc(S(=O)(=O)NCCO)cc4)nc3O)c3ccc(O)cc3)C(=O)N2[C@H]1C(=O)O (some centres unmarked) [F]", 2],
  ["CC1(C)S[C@@H]2[C@H](NC(=O)C(NC(=O)Nc3cnc(Nc4ccc(S(=O)(=O)NC5=NCCCN5)cc4)nc3O)c3ccc(O)cc3)C(=O)N2[C@H]1C(=O)O (some centres unmarked) [A]", 0.5],
  ["CC1(C)S[C@@H]2[C@H](NC(=O)[C@H](NC(=O)N3CCNC3=O)c3ccccc3)C(=O)N2[C@H]1C(=O)O [J, azlocillin, reference compound]", 32],
  ["CC1(C)S[C@@H]2[C@H](NC(=O)C(NC(=O)Nc3cnc(Nc4ccc(S(=O)(=O)NCC(N)=O)cc4)nc3O)c3ccc(O)cc3)C(=O)N2[C@H]1C(=O)O (some centres unmarked) [G]", 1],
  ["CC1(C)S[C@@H]2[C@H](NC(=O)C(NC(=O)Nc3cnc(Nc4ccc(S(=O)(=O)NC5=NCCS5)cc4)nc3O)c3ccc(O)cc3)C(=O)N2[C@H]1C(=O)O (some centres unmarked) [C]", 0.5],
  ["CC1(C)S[C@@H]2[C@H](NC(=O)C(NC(=O)Nc3cnc(Nc4ccc(S(=O)(=O)NC5=NCCN5)cc4)nc3O)c3ccc(O)cc3)C(=O)N2[C@H]1C(=O)O (some centres unmarked) [B]", 0.1],
  ["CC1(C)S[C@@H]2[C@H](NC(=O)C(NC(=O)Nc3cnc(Nc4ccc(S(=O)(=O)N5CCN(C=O)CC5)cc4)nc3O)c3ccc(O)cc3)C(=O)N2[C@H]1C(=O)O (some centres unmarked) [H]", 1],
  ["CC1(C)S[C@@H]2[C@H](NC(=O)C(NC(=O)Nc3cnc(Nc4ccc(S(=O)(=O)NC5=NCCO5)cc4)nc3O)c3ccc(O)cc3)C(=O)N2[C@H]1C(=O)O (some centres unmarked) [D]", 1]
]}

---

Test system: E. coli ATCC 11775
Assay: in vivo experimental E. coli infection in mice
Parameters: species or system mice (female, NMRI strain)
Settings: Escherichia coli, ATCC11775, sc, 168 h; subcutaneous, one treatment 1 hour post infectionem; 50% survival, 7 days observation
# ED50 annotations
Observed Property: ED50

{"columns": ["Compound", "Data Value"],
 "data": [
  ["CC1(C)S[C@@H]2[C@H](NC(=O)C(NC(=O)Nc3cnc(Nc4ccc(S(=O)(=O)NC5=NCCO5)cc4)nc3O)c3ccc(O)cc3)C(=O)N2[C@H]1C(=O)O (stereo partly shown) [D]", "~2 mg/kg"],
  ["CC1(C)S[C@@H]2[C@H](NC(=O)C(NC(=O)Nc3cnc(Nc4ccc(S(=O)(=O)NC5=NCCCN5)cc4)nc3O)c3ccc(O)cc3)C(=O)N2[C@H]1C(=O)O (stereo partly shown) [A]", "0.6 mg/kg"],
  ["CC1(C)S[C@@H]2[C@H](NC(=O)C(NC(=O)Nc3cnc(Nc4ccc(S(=O)(=O)NC5=NCCN5)cc4)nc3O)c3ccc(O)cc3)C(=O)N2[C@H]1C(=O)O (stereo partly shown) [B]", "0.7 mg/kg"],
  ["CC1(C)S[C@@H]2[C@H](NC(=O)C(NC(=O)Nc3cnc(Nc4ccc(S(=O)(=O)NCCO)cc4)nc3O)c3ccc(O)cc3)C(=O)N2[C@H]1C(=O)O (stereo partly shown) [F]", "~5 mg/kg"],
  ["CC1(C)S[C@@H]2[C@H](NC(=O)[C@H](NC(=O)N3CCNC3=O)c3ccccc3)C(=O)N2[C@H]1C(=O)O [J, azlocillin, reference compound]", "> 100 mg/kg"],
  ["CC1(C)S[C@@H]2[C@H](NC(=O)C(NC(=O)Nc3cnc(Nc4ccc(S(=O)(=O)NCC(N)=O)cc4)nc3O)c3ccc(O)cc3)C(=O)N2[C@H]1C(=O)O (stereo partly shown) [G]", "~5 mg/kg"],
  ["CC1(C)S[C@@H]2[C@H](NC(=O)C(NC(=O)Nc3cnc(Nc4ccc(S(=O)(=O)NC5=NCCS5)cc4)nc3O)c3ccc(O)cc3)C(=O)N2[C@H]1C(=O)O (stereo partly shown) [C]", "~3 mg/kg"]
]}
